system: Hepatotoxicity
Metric Name: HepSE_hepatic failure

Worked set:
{"Compound": "CCN1CC(CCN2CCOCC2)C(c2ccccc2)(c2ccccc2)C1=O (stereo unspecified)", "Result": 0}
{"Compound": "COc1cc2c(cc1OC)[C@@H](Cc1cc(OC)c(OC)c(OC)c1)[N+](C)(CCCOC(=O)CC/C=C/CCC(=O)OCCC[N+]1(C)CCc3cc(OC)c(OC)cc3[C@H]1Cc1cc(OC)c(OC)c(OC)c1)CC2 (stereo partly specified)", "Result": 0}

State recorded HepSE_hepatic failure with Hepatotoxicity, entry CC1(C)S[C@@H]2[C@H](NC(=O)C(C(=O)O)c3ccccc3)C(=O)N2[C@H]1C(=O)O (stereo partly specified) , no comment.
0

State recorded HepSE_hepatic failure with Hepatotoxicity, entry CCc1c(C)[nH]c2c1C(=O)C(CN1CCOCC1)CC2 (stereo unspecified) , no comment.
0

State recorded HepSE_hepatic failure with Hepatotoxicity, entry CC(=O)O[C@H]1C[C@@H]2CC[C@@H]3[C@H](CC[C@@]4(C)[C@H]3C[C@H]([N+]3(C)CCCCC3)[C@@H]4OC(C)=O)[C@@]2(C)C[C@@H]1N1CCCCC1 , no comment.
0

State recorded HepSE_hepatic failure with Hepatotoxicity, entry CC1(C)O[C@@H]2C[C@H]3[C@@H]4C[C@H](F)C5=CC(=O)C=C[C@]5(C)[C@@]4(F)[C@@H](O)C[C@]3(C)[C@]2(C(=O)CO)O1 [FLUOCINOLONE ACETONIDE] , no comment.
0

###

system: Hepatotoxicity
Metric Name: HepSE_bilirubinemia

Output measured HepSE_bilirubinemia for this item: Cc1nc2ccc(CN(C)c3ccc(C(=O)N[C@@H](CCC(=O)O)C(=O)O)s3)cc2c(=O)[nH]1
0

Output measured HepSE_bilirubinemia for this item: CNCCc1ccccn1
0

Output measured HepSE_bilirubinemia for this item: Nc1ccc(C(=O)NCC(=O)O)cc1
0

Output measured HepSE_bilirubinemia for this item: Nc1ncnc2c1ncn2[C@@H]1O[C@H](COP(=O)(S)S)[C@@H](O)[C@H]1O
0

Output measured HepSE_bilirubinemia for this item: CN1CCCC(n2nc(Cc3ccc(Cl)cc3)c3ccccc3c2=O)CC1 (centres undefined)
0

Output measured HepSE_bilirubinemia for this item: C[C@]12CCC(=O)C=C1CC[C@@H]1[C@@H]2CC[C@@]2(C)[C@H]1CC[C@]2(C)O
0

Output measured HepSE_bilirubinemia for this item: COC1=CC(=O)C[C@@H](C)[C@]12Oc1c(Cl)c(OC)cc(OC)c1C2=O
0

Output measured HepSE_bilirubinemia for this item: CCC(C)n1ncn(-c2ccc(N3CCN(c4ccc(OCC5COC(Cn6cncn6)(c6ccc(Cl)cc6Cl)O5)cc4)CC3)cc2)c1=O (centres undefined)
1

Output measured HepSE_bilirubinemia for this item: Nc1nc2ccc(OC(F)(F)F)cc2s1
0

###

The following compounds each carry a recorded HepSE_liver disease for Hepatotoxicity.
// response body must contain only the number

Worked set:
{"Compound": "Cc1cc(C2CCCCC2)n(O)c(=O)c1 [CICLOPIROX]", "Quantitative Readout": 0}
{"Compound": "CN(C)CCCN1c2ccccc2Sc2ccc(Cl)cc21 [CHLORPROMAZINE]", "Quantitative Readout": 1}

Output measured HepSE_liver disease for this item: Cc1ccc(O)c([C@H](CCN(C(C)C)C(C)C)c2ccccc2)c1 [TOLTERODINE]
0

Output measured HepSE_liver disease for this item: NC(=O)N1c2ccccc2C=Cc2ccccc21 [CARBAMAZEPINE]
0

Output measured HepSE_liver disease for this item: CC1(C)O[C@@H]2C[C@H]3[C@@H]4CCC5=CC(=O)CC[C@]5(C)[C@@]4(F)[C@@H](O)C[C@]3(C)[C@]2(C(=O)CCl)O1 [HALCINONIDE]
0

Output measured HepSE_liver disease for this item: Cc1noc(NS(=O)(=O)c2ccc(N)cc2)c1C [SULFISOXAZOLE]
0

Output measured HepSE_liver disease for this item: CN1CCN(C2=Nc3cc(Cl)ccc3Nc3ccccc32)CC1 [CLOZAPINE]
0

###

The following compounds each carry a recorded HepSE_hepatitis for Hepatotoxicity.
// response body must contain only the number

Output measured HepSE_hepatitis for this item: CCOC(=O)[C@H](CCc1ccccc1)N[C@H]1CCCN2CCC[C@@H](C(=O)O)N2C1=O [CILAZAPRIL]
1

###

The following molecules each carry a recorded HepSE_hepatitis for Hepatotoxicity.
// response body must contain only the number

{"Molecule": "Cc1onc(-c2ccccc2)c1C(=O)N[C@@H]1C(=O)N2[C@@H]1SC(C)(C)[C@@H]2C(=O)O", "Target Entity": "Hepatotoxicity", "Metric Name": "HepSE_hepatitis", "Quantitative Readout": 0}

State recorded HepSE_hepatitis with Hepatotoxicity, entry COc1ccc2cc(CCC(C)=O)ccc2c1 , no comment.
0

State recorded HepSE_hepatitis with Hepatotoxicity, entry Cn1nnc2c(C(N)=O)ncn2c1=O [TEMOZOLOMIDE] , no comment.
0

State recorded HepSE_hepatitis with Hepatotoxicity, entry COc1cc2c(cc1OC)C(=O)C(CC1CCN(Cc3ccccc3)CC1)C2 (configuration not stated) , no comment.
1

State recorded HepSE_hepatitis with Hepatotoxicity, entry O=C1Cc2cc(CCN3CCN(c4nsc5ccccc45)CC3)c(Cl)cc2N1 , no comment.
1

State recorded HepSE_hepatitis with Hepatotoxicity, entry CC(C)[C@@H]1NC(=O)[C@H](CCCCN)NC(=O)[C@@H](Cc2c[nH]c3ccccc23)NC(=O)[C@H](Cc2ccc(O)cc2)NC(=O)[C@@H](NC(=O)[C@H](N)Cc2ccc3ccccc3c2)CSSC[C@@H](C(=O)N[C@H](C(N)=O)[C@@H](C)O)NC1=O [LANREOTIDE] , no comment.
0

###

test system: Hepatotoxicity
Metric Name: HepSE_liver fatty
// response body must contain only the number

Worked set:
{"Compound": "NS(=O)(=O)c1cc2c(cc1Cl)N=CNS2(=O)=O [CHLOROTHIAZIDE]", "Quantitative Readout": 0}
{"Compound": "O=S(=O)([O-])CCS.[Na+]", "Quantitative Readout": 0}
{"Compound": "Clc1ccc2c(c1)CCc1cccnc1C2=C1CCNCC1", "Quantitative Readout": 0}
{"Compound": "COCC1=C(C(=O)O)N2C(=O)[C@@H](NC(=O)/C(=N\\OC)c3csc(N)n3)[C@H]2SC1", "Quantitative Readout": 0}

State recorded HepSE_liver fatty with Hepatotoxicity, entry CCOC(=O)CC(SP(=S)(OC)OC)C(=O)OCC (configuration not stated) , no comment.
0

State recorded HepSE_liver fatty with Hepatotoxicity, entry COc1cc(C)c(/C=C/C(C)=C/C=C/C(C)=C/C(=O)O)c(C)c1C , no comment.
0

State recorded HepSE_liver fatty with Hepatotoxicity, entry CN1CCN(C(=O)OC2c3nccnc3C(=O)N2c2ccc(Cl)cn2)CC1 (configuration not stated) , no comment.
0

State recorded HepSE_liver fatty with Hepatotoxicity, entry COc1cc(N)c(Cl)cc1C(=O)NC1CCN(CCCOc2ccc(F)cc2)CC1OC (configuration not stated) [CISAPRIDE] , no comment.
0

State recorded HepSE_liver fatty with Hepatotoxicity, entry OCCN1CCN(CCCN2c3ccccc3Sc3ccc(Cl)cc32)CC1 , no comment.
0

State recorded HepSE_liver fatty with Hepatotoxicity, entry c1cnc2cc3c(cc2n1)[C@@H]1CNC[C@H]3C1 , no comment.
0

State recorded HepSE_liver fatty with Hepatotoxicity, entry c1ccc2c(CC3=NCCN3)cccc2c1 , no comment.
0

State recorded HepSE_liver fatty with Hepatotoxicity, entry Nc1cc(-c2ccncc2)c[nH]c1=O , no comment.
0

State recorded HepSE_liver fatty with Hepatotoxicity, entry CCOc1cc(CC(=O)N[C@@H](CC(C)C)c2ccccc2N2CCCCC2)ccc1C(=O)O [REPAGLINIDE] , no comment.
0

State recorded HepSE_liver fatty with Hepatotoxicity, entry COc1ccccc1OCC(O)CN1CCN(CC(=O)Nc2c(C)cccc2C)CC1 (configuration not stated) , no comment.
0

State recorded HepSE_liver fatty with Hepatotoxicity, entry C=CCC1(C(C)CCC)C(=O)NC(=O)NC1=O (configuration not stated) , no comment.
0

State recorded HepSE_liver fatty with Hepatotoxicity, entry NNC(=O)c1ccncc1 , no comment.
0

State recorded HepSE_liver fatty with Hepatotoxicity, entry O=C1[C@H](CC[C@H](O)c2ccc(F)cc2)[C@@H](c2ccc(O)cc2)N1c1ccc(F)cc1 , no comment.
0

State recorded HepSE_liver fatty with Hepatotoxicity, entry CC(C)(Oc1ccc(CCNC(=O)c2ccc(Cl)cc2)cc1)C(=O)O [BEZAFIBRATE] , no comment.
0

State recorded HepSE_liver fatty with Hepatotoxicity, entry C[C@@H](O[C@H]1OCCN(Cc2n[nH]c(=O)[nH]2)[C@H]1c1ccc(F)cc1)c1cc(C(F)(F)F)cc(C(F)(F)F)c1 [APREPITANT] , no comment.
0

State recorded HepSE_liver fatty with Hepatotoxicity, entry O=C(CO)[C@@H](O)[C@@H](O)COP(=O)(O)O , no comment.
0

State recorded HepSE_liver fatty with Hepatotoxicity, entry C[C@]12CCC(=O)C=C1CC[C@@H]1[C@@H]2CC[C@@]2(C)[C@H]1CC[C@]2(C)O , no comment.
0
